Each entry below lists one item and its recorded T/C value.
System: L1210 leukemia ip in BDF1 mice, survival T/C
experiment.notes: NCI In Vivo Anticancer Drug Screen. Data for tumor model L1210 Leukemia (intraperitoneal) in B6D2F1 (BDF1) mice
applied.conditions: endpoint: mean survival time; dose: 200.0 mg/kg/injection; schedule: Q01DX009 (ip); vehicle: Klucel (hydroxypropylcellulose) (HPC); higher = longer survival
Method: The antitumor activity of compounds was measured in mice bearing transplantable tumors. Survival or tumor size were measured and the results are expressed as the measurement made in the treated group (T) divided by the measurement made in the vehicle treated control group (C). The tumor model used in this assay is L1210 Leukemia (intraperitoneal) in B6D2F1 (BDF1) mice
Toxic doses and inconclusive results are not listed.

molecule: CN(C)S(=O)(=O)Nc1cc(Cl)c(NS(=O)(=O)N(C)C)cc1Cl
T/C: 96 % of control

molecule: CC(/C=C/C=C/c1ccccc1)=N\O
T/C: 90 % of control

molecule: O=C(Nc1cccc([N+](=O)[O-])c1)Nc1ccccc1C(F)(F)F
T/C: 91 % of control

molecule: Cc1ccc(N=Nc2ccc(C)cc2NC(=O)c2cccc3ccccc23)cc1
T/C: 100 % of control

molecule: N#Cc1c(O)ccc(O)c1C#N
T/C: 87 % of control

molecule: COC(=O)CNc1ccc(S(=O)(=O)c2ccc(N)cc2)cc1
T/C: 92 % of control

molecule: CCCCCCCCCCCCCCOC(=O)Cl
T/C: 97 % of control

molecule: OC1(C#CC2(O)CCCCC2)CCCCC1
T/C: 102 % of control

molecule: COC(=O)C1=CC=CC1
T/C: 104 % of control

molecule: C=CCSc1nccc(=O)[nH]1
T/C: 96 % of control

molecule: C(=Nc1ccc2c(c1)Cc1ccccc1-2)c1ccnc2ccccc12
T/C: 100 % of control

molecule: CCN(CC)CCCNc1nc(C(Cl)(Cl)Cl)nc2ccc(I)cc12
T/C: 100 % of control

molecule: C=CC1CN2CCC1CC2C(O)c1ccnc2ccc(OC)cc12 (stereo not given) (tested in a mixture with another compound)
T/C: 97 % of control

molecule: COc1cc2c(c3oc(=O)ccc13)C(=O)CC(C)(C)O2
T/C: 91 % of control

molecule: Cc1ccc(S(=O)(=O)N2CCC(O)(c3ccccc3)CC2)cc1
T/C: 90 % of control

====

Each entry below lists one item and its recorded T/C value.
Tested on: L1210 leukemia ip in BDF1 mice, survival T/C
experiment.notes: NCI In Vivo Anticancer Drug Screen. Data for tumor model L1210 Leukemia (intraperitoneal) in B6D2F1 (BDF1) mice
applied.conditions: endpoint: mean survival time; dose: 75.0 mg/kg/injection; schedule: Q01DX001 (ip); vehicle: other; higher = longer survival
Inconclusive results and toxic doses are left out.

compound: Cc1cc(C#N)cc(C)c1N
T/C: 100 % of control
--
compound: CCCCNN
T/C: 96 % of control
--
compound: O=C(C[n+]1ccccc1Br)c1cccc([N+](=O)[O-])c1
T/C: 100 % of control
--
compound: CCCCC(CC)CNCCOC(=O)c1ccc(N)cc1 (centres undefined)
T/C: 92 % of control

====

Test system: L1210 leukemia ip in BDF1 mice, survival T/C
experiment.notes: NCI In Vivo Anticancer Drug Screen. Data for tumor model L1210 Leukemia (intraperitoneal) in B6D2F1 (BDF1) mice
applied.conditions: endpoint: mean survival time; dose: 200.0 mg/kg/injection; schedule: Q04DX003 (ip); vehicle: Klucel (hydroxypropylcellulose) (HPC); higher = longer survival
Inconclusive results and toxic doses are left out.

compound: O=[N+]([O-])c1ccc(/C=C/c2ccccc2)cc1
system: L1210 leukemia ip in BDF1 mice, survival T/C
T/C: 98 % of control
--
compound: CC(C)(C)CCCC1C(=O)N(c2ccccc2)N(c2ccccc2)C1=O
system: L1210 leukemia ip in BDF1 mice, survival T/C
T/C: 96 % of control
--
compound: O=C1NC(O)C(O)N1 (stereo not given)
system: L1210 leukemia ip in BDF1 mice, survival T/C
T/C: 96 % of control
--
compound: CCN(CC)CCCCCOC(=O)c1ccccc1
system: L1210 leukemia ip in BDF1 mice, survival T/C
T/C: 107 % of control
--
compound: Cc1ccc(NS(=O)(=O)c2ccc(F)cc2)cc1C
system: L1210 leukemia ip in BDF1 mice, survival T/C
T/C: 105 % of control
--
compound: Clc1ccc(C(c2ccc(Cl)cc2)C(Cl)Cl)cc1
system: L1210 leukemia ip in BDF1 mice, survival T/C
T/C: 98 % of control
--
compound: Nc1cc2ccncc2c2ccccc12
system: L1210 leukemia ip in BDF1 mice, survival T/C
T/C: 108 % of control
--
compound: OC1(C#CC2(O)CCCCC2)CCCCC1
system: L1210 leukemia ip in BDF1 mice, survival T/C
T/C: 90 % of control
--
compound: O=C(CC(O)(C(F)(F)F)C(F)(F)F)c1cccc2ccccc12
system: L1210 leukemia ip in BDF1 mice, survival T/C
T/C: 90 % of control
--
compound: Cc1[nH]c(=S)[nH]c(=O)c1CCC(=O)O
system: L1210 leukemia ip in BDF1 mice, survival T/C
T/C: 102 % of control
--
compound: CCOc1ccc(CCC(=O)O)cc1
system: L1210 leukemia ip in BDF1 mice, survival T/C
T/C: 105 % of control
--
compound: CC(=O)C1=CCCCC1
system: L1210 leukemia ip in BDF1 mice, survival T/C
T/C: 105 % of control
--
compound: COC(=O)c1cc(=O)[nH]c2c1c(=O)n(C)c(=O)n2C
system: L1210 leukemia ip in BDF1 mice, survival T/C
T/C: 90 % of control
--
compound: CCN(CC)Cc1ncccc1O
system: L1210 leukemia ip in BDF1 mice, survival T/C
T/C: 104 % of control
--
compound: CC(=O)Nc1cc([N+](=O)[O-])ccc1CC(O)c1ccccc1Cl (stereo not given)
system: L1210 leukemia ip in BDF1 mice, survival T/C
T/C: 108 % of control

// data source = PubChem BioAssay AID248
